assay: Human HepG2 cell viability assay in 384 well format; format: toxicity, cell-based; design: dose 125 nL, time 70.5 hour; concentration not given beside the values; settings: HepG2 cells, read-out: Inhibition

| Compound | cytotoxicity at 70.5 h (%) |
| --- | --- |
| c1ccc(CO[C@@H]2CN(Cc3nccs3)[C@@H]3COC[C@@H]32)nc1 | -7.21 |
| COc1cccc(-n2cc(CN(C)C(=O)c3cnc(O)cn3)cn2)c1 | -9 |
| COCCCN1CC2(CCCN(CCn3cc(Cl)cn3)C2)CCC1=O (stereo unspecified) | -21.9 |
| CCC(C)(CC(=O)OC)NCc1nc(C)no1 (stereo unspecified) | 28.3 |
| CCN(Cc1nc(COC)no1)C(=O)CCNC(=O)c1ccccc1F | 22.4 |
| CNCC[C@H]1CC(C)(C)Oc2ccc(C)cc21 | -2.65 |
| O=C1CNc2ncnc(N3CCN(Cc4ccccc4)CC3)c2N1 | 12.6 |
| Cc1cc(C[C@@H]2CCC[C@H]2NCc2ccccc2C(F)(F)F)on1 | -17.3 |
| COCCN1C(=O)C2(CCN(CC3CC3)CC2)c2ccccc21 | 0.205 |
| O=C(Nc1ccc(Br)cc1F)c1cc(CN2CCOCC2)on1 | -5.21 |
| COCCN1C(=O)[C@H]2CC[C@@H]1CN(C(=O)COc1ccc(F)c(Cl)c1)C2 | -9.65 |
| CNC(=O)c1ccc(C2CN(C(=O)COC)CCO2)nc1 (stereo unspecified) | -16.7 |
| O=C(NCc1ccco1)[C@@H]1CCO[C@@H]2CCN(c3ccncn3)C[C@H]21 | -2.41 |
| Cc1nccn1Cc1nnc(C2CCCN(Cc3cccnc3)C2)n1C (stereo unspecified) | 5.17 |
| O=c1n(CCNCc2cccc3ccccc23)nc2ccccn12 | -12.6 |
| COCCN1CC(C(=O)NCc2cccnc2-n2cccn2)CC1=O (stereo unspecified) | -7.22 |
| Cc1nc(-c2cc(C(=O)N3CCCN(C)CC3)c3ccccn23)cn1C | -2.18 |
| CCc1nc(C2CCCN2C(=O)CCc2nc(C3CC3)no2)no1 (stereo unspecified) | -1.64 |
| CNC(=O)c1ccc(=O)n(Cc2csc(C(C)(C)C)n2)c1 | -18.4 |
| Cc1nc(C(C)NC(=O)c2cn(C/C=C/c3ccccc3)nn2)n[nH]1 (stereo unspecified) | -13.1 |
| COC(C)C(=O)NS(=O)(=O)c1cccc2cc(C)cnc12 (stereo unspecified) | -2.88 |
| Cc1cc(C(=O)N2C[C@@H]3[C@@H](C2)OCC(=O)N3CC2CC2)no1 | -13.6 |
| O=C([C@H]1CN(Cc2ccc(F)cc2)C[C@H]2OCC[C@@H]12)N1CCCO1 | -7.77 |
| Cn1cc(C2CCCN2C(=O)c2cnc(-c3ncccn3)s2)cn1 (stereo unspecified) | -1.78 |
| CO[C@H]1CN(S(=O)(=O)c2cn(C)cn2)[C@@H]2CCCO[C@H]12 | 24.5 |
| CS(=O)(=O)N1CCCCCC1C1CCN(c2ncccc2C#N)CC1 (stereo unspecified) | -0.285 |
| CC(=O)N1CCCC(c2ccc(Br)cn2)C1 (stereo unspecified) | -6.22 |
| Fc1ccc(CN2CCCC(c3nnc(-c4cnccn4)o3)C2)cc1F (stereo unspecified) | 0.0269 |
| CC1(C)OC(=O)N(CC(=O)N2CCC(c3ccccc3Cl)C2)C1=O (stereo unspecified) | -6.23 |
| CN1C[C@@H](NC(=O)C(C)(C)C)C[C@H]1C(=O)NCc1ncc[nH]1 | -8.54 |
| O=C(Cc1cccnc1)N1CCC2(CC1)CCN(C1CCOC1)C2 (stereo unspecified) | 8.42 |
| CCNC(=O)c1cnc(Sc2nccn2C)c(Cl)c1 | -2.03 |
| O=C1NCCN1C1CCN(CCOc2ccccc2F)CC1 | -5.97 |
| Cc1ccc(NC(=O)CNC(C)CN2CCCCC2)c(F)c1 (stereo unspecified) | 6.42 |
| O=C(c1cnccn1)N1CCN(Cc2ccncc2)c2ncccc2C1 | -5.23 |
| Cn1cc(C[C@H]2[C@H](N3CCOCC3)CCN2C(=O)c2ccoc2)cn1 | -16.3 |
| NS(=O)(=O)CCCNC(=O)C1(c2cccc(Cl)c2)CC1 | -22.9 |
| O=C(c1ccccn1)N1C[C@@H]2OCC(=O)N(CC3CCCCC3)[C@@H]2C1 | -6.75 |
| Cc1nn(C)cc1C(=O)N1CCCC(c2nccn2Cc2cscn2)C1 (stereo unspecified) | -7.69 |
| Cc1noc(C)c1CN1CCc2ncnc(-c3ccccc3)c2CC1 | 18.5 |
| CN(CCc1ccccn1)C(=O)c1cn(CCN2CCNCC2)nn1 | -10.7 |
| C[C@@H](N)C(=O)N1CC2(CCNCC2)c2cc(Cl)ccc21 | 0.763 |
| CC(C)Oc1ccc(C(=O)N2CCCCC2Cn2cccn2)cn1 (stereo unspecified) | -4.78 |
| Cc1cc(C)n(CC2CN(Cc3nc(C)c(C)o3)CCO2)n1 (stereo unspecified) | -5.6 |
| O=C(CNC(=O)c1cc(Cl)ccn1)Nc1nccs1 | -4.32 |
| Cc1cc(C)nc(Nc2cncc(C3CCCN(S(C)(=O)=O)C3)n2)n1 (stereo unspecified) | 33.8 |

----------
experiment: Human HepG2 cell viability assay in 384 well format; format: toxicity, cell-based; design: dose 125 nL, time 70.5 hour; concentration not given beside the values; conditions: HepG2 cells, read-out: Inhibition
Examples of compounds with documented cytotoxicity at 70.5 h follow.
Measured metric: cytotoxicity at 70.5 h (%)

| Compound | Measured metric | Unit of measurement | Experimental result |
| --- | --- | --- | --- |
| O=C(c1ccncc1)N1CCn2c(nnc2-c2ccccc2)C1 | cytotoxicity at 70.5 h | % | -6.68 |
| CCn1cncc1C1CC(=O)Nc2c1c(C)nn2C (centres undefined) | cytotoxicity at 70.5 h | % | -4.74 |
| Cc1nc(CN(C)c2cc(N3CCCC3CO)ncn2)cs1 (centres undefined) | cytotoxicity at 70.5 h | % | -3.26 |
| CCn1ccnc1CN1CCCN(C(=O)c2ccsc2)CC1 | cytotoxicity at 70.5 h | % | -2.37 |
| CN(CC1CCN(CCO)CC1)CC(O)c1ccc(F)cc1F (centres undefined) | cytotoxicity at 70.5 h | % | -3.94 |
| CCCS(=O)(=O)N1CCN(c2cc(-n3nc(C)cc3C)nc(C)n2)CC1 | cytotoxicity at 70.5 h | % | -10.3 |
| Cc1cc(F)cc(S(=O)(=O)Nc2noc(C)n2)c1 | cytotoxicity at 70.5 h | % | -1.08 |
| CSCCC(NC(N)=O)C(=O)Nc1ccc(-n2cccn2)nc1 (centres undefined) | cytotoxicity at 70.5 h | % | -7.37 |
| Cc1cnc(NCc2cnn(C)c2)nc1-c1cnn(C)c1 | cytotoxicity at 70.5 h | % | 13.5 |
| CN(Cc1cccnc1)C[C@H]1OC[C@@H]2CCN(C(=O)C3CC3)C[C@@H]21 | cytotoxicity at 70.5 h | % | -9.16 |
| Cc1nc(C)n(CC2CCCN(c3ccnc(-c4ccccc4)n3)C2)n1 (centres undefined) | cytotoxicity at 70.5 h | % | -10.2 |
| O=C(Cc1ccccc1C(F)(F)F)N1CCC2(CC1)[C@H](O)C[C@@H]2O | cytotoxicity at 70.5 h | % | -6.88 |
| CC(NCc1c(C(C)C)nn(C)c1N1CCOCC1)C(=O)N(C)C (centres undefined) | cytotoxicity at 70.5 h | % | 23 |
| NC(=O)NCC1CCCCN1C(=O)c1cccc(C(F)(F)F)c1 (centres undefined) | cytotoxicity at 70.5 h | % | -3.78 |
| Cc1nn(C)c(C)c1C1COCCN1C(=O)CC(C)(C)C (centres undefined) | cytotoxicity at 70.5 h | % | 24.2 |
| CCC(CO)N(CC=C(C)C)Cc1ccsc1 (centres undefined) | cytotoxicity at 70.5 h | % | -2.49 |
| CCC1CN(CC(=O)NCCC#N)CCO1 (centres undefined) | cytotoxicity at 70.5 h | % | 2.5 |
| CN(Cc1nccn1C)C(=O)C1COCC(=O)N1Cc1ccccc1 (centres undefined) | cytotoxicity at 70.5 h | % | 30.1 |
| c1cc(CN2CCCC2)cc(-n2ccnc2-c2ccncc2)c1 | cytotoxicity at 70.5 h | % | 0.243 |
| COCCN1CCCC1c1cccc2c1OCCO2 (centres undefined) | cytotoxicity at 70.5 h | % | 7.8 |
| Cn1cc(C#N)c(=O)n(CC(O)c2ccccc2F)c1=O (centres undefined) | cytotoxicity at 70.5 h | % | -13.2 |
| F[C@@H]1CN(CC2CC2)C[C@@H]1OCc1nc2ccccc2o1 | cytotoxicity at 70.5 h | % | -1.13 |
| COc1c(C2CCCN2C(=O)c2ccc3cc[nH]c3c2)c(C)nn1C (centres undefined) | cytotoxicity at 70.5 h | % | -2.48 |
| CCc1noc(C(C)N2CCC(NS(=O)(=O)c3cccs3)CC2)n1 (centres undefined) | cytotoxicity at 70.5 h | % | -11.6 |
